Where these numbers come from: patent US10669284B2

# System tested: Full-length human MNK1 (Homo sapiens, UniProt Q9BUB5, T385D)
# Construct: GST (N); purchased Carna Biosciences 02-145; host or cells: baculovirus expression system
# Sequence (Q9BUB5 1-424 isoform Q9BUB5-2 T344D): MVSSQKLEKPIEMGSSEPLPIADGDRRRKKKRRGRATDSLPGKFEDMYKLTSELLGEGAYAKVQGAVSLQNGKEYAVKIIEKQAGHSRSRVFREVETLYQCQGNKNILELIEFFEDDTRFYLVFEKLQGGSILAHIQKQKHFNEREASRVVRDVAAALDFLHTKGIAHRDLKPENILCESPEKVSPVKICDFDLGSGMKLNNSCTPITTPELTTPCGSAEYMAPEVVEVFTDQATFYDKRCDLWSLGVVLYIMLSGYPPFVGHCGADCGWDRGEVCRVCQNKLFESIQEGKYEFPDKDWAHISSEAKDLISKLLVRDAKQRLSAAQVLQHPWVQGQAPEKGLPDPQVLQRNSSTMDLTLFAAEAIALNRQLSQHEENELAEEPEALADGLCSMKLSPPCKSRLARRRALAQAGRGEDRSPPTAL
# Experiment description: MNK1 biochemical IC50 assay (Caliper Mobility Shift Assay)
# Condition info: read-out: P(IC50) MNK1 (converted)
# Excerpt: The phosphorylated peptide product and unphosphorylated peptide substrate were detected using a Caliper Mobility Shift Assay using the Caliper LabChip EZ Reader II. The Caliper Mobility Shift Assay technology is based on the utilisation of a microfluidic chip to measure the conversion of a fluorescent non-phosphorylated peptide substrate to phosphorylated product by electrophoresis separation of substrate and product and detection via Laser-induced fluorescence. […]
Property: IC50 (µM)

Completed entries (count: 4):
* Cc1ccc2c(c1)CCN2c1ncnc2sc(C(=O)NCC3CCNCC3)nc12 [Example 170] | 0.0631
* CC(C)Oc1cc(F)ccc1Nc1ncnc2sc(C(=O)NC3CCS(=O)(=O)CC3)nc12 [Example 34] | 0.2
* CNCCCNC(=O)c1nc2c(N3CC(C)(C)c4ccccc43)ncnc2s1 [Example 159] | 0.00501
* O=C(NC1COC1)c1nc2c(N3CCc4cc(F)ccc43)ncnc2s1 [Example 76] | 0.00631

I: CC(C)Oc1cc(F)ccc1Nc1ncnc2sc(C(=O)NCC3CCOCC3)nc12 [Example 38]
II: CN(C)CCNc1nc2c(N3CCc4cc(F)ccc43)ncnc2s1 [Example 86]
III: O=C(NC1CCOCC1)c1nc2c(N3CCc4cc(C(F)(F)F)ccc43)ncnc2s1 [Example 112]
INPUT: Rank descending by IC50. # the answer lists labels in the order requested
OUTPUT: III, I, II
(III: 0.2 µM, I: 0.1 µM, II: 0.0631 µM)
